Hey, just so you know, these numbers are from patent US4127687A.

- measurement.protocol: Water solubility by UV spectrophotometric method
- Type: physicochemical
- condition.summary: water, saturated solution; Table 1; read-out: Solubility by UV method
parameter: log10(solubility) (log10 of the value in µg/mL)
Heads up, the numbers here are log10 of solubility in µg/mL units.

Record summary for "Cc1c(Cl)sn(C2CCCCC2)c1=O" : reported log10(solubility) = 2.54

Form field log10(solubility), entry "CCCCCCCCCCn1sc(Cl)cc1=O" : 0.86

According to the records, this compound "O=c1c(Cl)c(Cl)sn1CCc1ccccc1" displays log10(solubility) of 1.34

"O=c1cc(Cl)sn1Cc1ccccc1" has a reported log10(solubility) of 2.59

Please fill in: log10(solubility) reported for "CCCCCCCCn1sc(Cl)c(Cl)c1=O" = 0.36

State the recorded log10(solubility) for every item in the following list.
1. CC(c1ccccc1)n1sc(Cl)cc1=O (stereo not drawn)
2. Cc1c(Cl)sn(-c2ccc(F)cc2)c1=O
3. CCCCCCCCCCn1sc(Cl)c(Cl)c1=O
4. CCCCCCCCn1sc(Cl)c(C)c1=O

2.62
1.54
0.15
1.58

Answer for every listed entry: what is its log10(solubility)? The entries follow.
1. CCCCC(CC)Cn1sc(Cl)cc1=O (stereo not drawn)
2. COc1ccc(-n2sc(Cl)cc2=O)cc1
3. O=c1cc(Cl)sn1-c1ccccc1
4. Cc1c(Cl)sn(-c2cccc(C(F)(F)F)c2)c1=O
5. Cc1c(Cl)sn(-c2ccc(C(F)(F)F)cc2)c1=O

[2.13, 2.48, 2.26, 1.08, 0.85]

Required: log10(solubility), one value per compound below.
1. O=c1c(Br)c(Br)sn1C1CCCCC1
2. Cc1c(Cl)cccc1-n1sc(Cl)c(Cl)c1=O
3. CC(C)CCCC(C)n1sc(Cl)cc1=O (stereo not drawn)
4. Cc1c(Cl)sn(-c2ccc(Cl)cc2Cl)c1=O

1: 0.81; 2: 0.57; 3: 2.28; 4: 0.60

* * *

- measurement.protocol: Amount of toxicant remaining in the test container after membrane diffusion raft tests
- Assay type: physicochemical
- Parameters: key: 0: empty or trace; +: some; + +: ample
- condition.summary: after completion of membrane diffusion raft tests
parameter: Contents at the end of test (amount of toxicants remaining in the test container)

Here are 6 compounds together with their reported answers.
Reported Contents at the end of test (amount of toxicants remaining in the test container) of "CCCCCCCCCCCCCCCCn1sc(Cl)c(Cl)c1=O" : + +

Measured Contents at the end of test (amount of toxicants remaining in the test container), "CCCCc1ccc(-n2sc(Cl)c(Cl)c2=O)cc1" : + +

Short answer for "CCCCCCCCCCn1sc(Cl)cc1=O" : Contents at the end of test (amount of toxicants remaining in the test container) was 0

The reported Contents at the end of test (amount of toxicants remaining in the test container) of the compound "O=c1cc(Cl)sn1-c1ccc(I)cc1" was + +

Entry under test: "CCCCCCn1sccc1=O" . Its Contents at the end of test (amount of toxicants remaining in the test container) was 0

Documented Contents at the end of test (amount of toxicants remaining in the test container) of "Cc1c(Cl)sn(-c2ccc(Cl)c(Cl)c2)c1=O" : + +

State recorded Contents at the end of test (amount of toxicants remaining in the test container) for all listed compounds.
1. Cn1sc(Br)c(Br)c1=O
2. Cc1c(Cl)sn(C)c1=O
3. COc1c(Cl)cccc1-n1sc(Cl)c(Cl)c1=O
4. O=c1ccsn1-c1ccc(Cl)cc1
5. Cc1c(Cl)cccc1-n1sc(Cl)c(Cl)c1=O

[0, 0, "+ +", "+", "+"]

// batch mode: one Contents at the end of test (amount of toxicants remaining in the test container) value per listed entry
1. CCCCCCCCn1sc(Cl)c(Cl)c1=O
2. CCCCCCCCCCCCn1sccc1=O
3. CCCCCCCCCCCCCCn1sc(Cl)cc1=O
4. O=c1c(Br)c(Cl)sn1Cc1ccc(Cl)cc1

1. + +
2. +
3. + +
4. +

Give Contents at the end of test (amount of toxicants remaining in the test container) for each listed item.
1. CCCCCCCCCCCCn1sc(Cl)c(C)c1=O
2. O=c1cc(Cl)sn1-c1ccc(Cl)c(C(F)(F)F)c1
3. O=c1c(Cl)c(Cl)sn1-c1cc(Cl)cc(Cl)c1
4. Cc1csn(-c2cccc(Cl)c2)c1=O
5. Cc1c(Cl)sn(Cc2ccccc2)c1=O
6. O=c1cc(Cl)sn1C1CCCCC1
7. CCCCCCn1sc(Cl)cc1=O
8. Cc1cc(-n2sc(Cl)c(C)c2=O)ccc1Br

1. + +
2. + +
3. + +
4. + +
5. 0
6. +
7. 0
8. + +
